- assayed_system: Canine H3 Receptors (Canis lupus familiaris, UniProt A0A8I3P226)
- Sequence (A0A8I3P226 1-445): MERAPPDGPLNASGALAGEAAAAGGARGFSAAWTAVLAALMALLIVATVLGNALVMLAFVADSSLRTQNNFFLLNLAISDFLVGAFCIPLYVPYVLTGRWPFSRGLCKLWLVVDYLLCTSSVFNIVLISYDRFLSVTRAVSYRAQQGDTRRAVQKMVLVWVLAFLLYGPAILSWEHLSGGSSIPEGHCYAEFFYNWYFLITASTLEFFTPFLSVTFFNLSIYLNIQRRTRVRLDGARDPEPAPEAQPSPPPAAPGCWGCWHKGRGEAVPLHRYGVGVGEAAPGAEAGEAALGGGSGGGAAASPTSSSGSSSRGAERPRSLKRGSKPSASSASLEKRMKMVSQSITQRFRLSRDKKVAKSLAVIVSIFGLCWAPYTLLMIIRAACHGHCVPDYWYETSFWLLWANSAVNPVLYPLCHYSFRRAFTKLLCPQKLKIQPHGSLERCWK
measured_attribute: Ki (nM)
Write the answer as a number in nM, unit excluded.

Bench note: what Ki did Cc1cc(CN2CCC(F)(C(=O)N3CCC(n4c(-c5ccccn5)nc5cccnc54)CC3)CC2)cc(N)n1 show?
1.3

====

- assay_info: Canine pharmacokinetics after oral and i.v. administration
- Assay type: in vivo, beagle dogs
- measurement_conditions: beagle, dog, plasma; fasted dogs, IV 3 mg/kg
measured_attribute: half-life

Bench note: what half-life did Cc1cc(CN2CCC(F)(C(=O)N3CCC(n4c(-c5ccccn5)nc5cccnc54)CC3)CC2)cc(N)n1 [Compound of Formula I] show?
9.5 h

====

- assay_info: Oral tolerance in dogs with plasma level analysis
- Assay type: in vivo, beagle dogs
- measurement_conditions: both sexes, beagle, dog, plasma, po, 5 mg/kg, Mean of 4 treated dogs, 5 mg/kg oral daily, end of study
measured_attribute: concentration at 7 day (ng/mL)
Write the answer as a number in ng/mL, unit excluded.

Bench note: what concentration at 7 day did Cc1cc(CN2CCC(F)(C(=O)N3CCC(n4c(-c5ccccn5)nc5cccnc54)CC3)CC2)cc(N)n1 show?
422

====

- assay_info: Oral tolerance in dogs with plasma level analysis
- Format: in vivo, beagle dogs
- measurement_conditions: male, beagle, dog, plasma, po, 5 mg/kg, male dog, 5 mg/kg oral daily, end of study, individual animal
measured_attribute: concentration at 7 day (ng/mL)
Write the answer as a number in ng/mL, unit excluded.

Bench note: what concentration at 7 day did Cc1cc(CN2CCC(F)(C(=O)N3CCC(n4c(-c5ccccn5)nc5cccnc54)CC3)CC2)cc(N)n1 [Compound of Formula I] show?
263

====

- assay_info: Oral tolerance in dogs with plasma level analysis
- Assay type: in vivo, beagle dogs
- measurement_conditions: male, beagle, dog, plasma, po, 5 mg/kg, male dog, 5 mg/kg oral daily, 24 hours after first dose, individual animal; read-out: Plasma level at Day 1
measured_attribute: concentration at 24 h (ng/mL)
Write the answer as a number in ng/mL, unit excluded.

Bench note: what concentration at 24 h did Cc1cc(CN2CCC(F)(C(=O)N3CCC(n4c(-c5ccccn5)nc5cccnc54)CC3)CC2)cc(N)n1 [Compound of Formula I] show?
118

====

- assay_info: Canine pharmacokinetics after oral and i.v. administration
- Format: in vivo, beagle dogs
- measurement_conditions: beagle, dog, plasma; fasted dogs, oral 3 mg/kg, 0.4% MC
measured_attribute: AUC(0-inf) (ng·h/mL)
Write the answer as a number in ng·h/mL, unit excluded.

Bench note: what AUC(0-inf) did Cc1cc(CN2CCC(F)(C(=O)N3CCC(n4c(-c5ccccn5)nc5cccnc54)CC3)CC2)cc(N)n1 show?
18900

====

- assay_info: Canine pharmacokinetics after oral and i.v. administration
- Format: in vivo, beagle dogs
- measurement_conditions: beagle, dog, plasma; fasted dogs, IV 3 mg/kg; read-out: Mean Residence Time (MRT)
measured_attribute: MRT (h)
Write the answer as a number in h, unit excluded.

Bench note: what MRT did Cc1cc(CN2CCC(F)(C(=O)N3CCC(n4c(-c5ccccn5)nc5cccnc54)CC3)CC2)cc(N)n1 show?
10.9

====

- assay_info: Canine pharmacokinetics after oral and i.v. administration
- Assay type: in vivo, beagle dogs
- measurement_conditions: beagle, dog, plasma; fasted dogs, oral 3 mg/kg; read-out: Mean Residence Time (MRT)
measured_attribute: MRT (h)
Write the answer as a number in h, unit excluded.

Bench note: what MRT did Cc1cc(CN2CCC(F)(C(=O)N3CCC(n4c(-c5ccccn5)nc5cccnc54)CC3)CC2)cc(N)n1 [Compound of Formula I] show?
18.6

====

- assay_info: Canine pharmacokinetics after oral and i.v. administration
- Format: in vivo, beagle dogs
- measurement_conditions: beagle, dog, plasma; fasted dogs, IV 3 mg/kg
- Procedure: The Compound of Formula I was administered at a dose of 3 mg/kg to fasted beagle dogs orally (PO) at […] (0.4% MC formulation) and i.v. at […] (captisol, pH 5.1 fornulation). Blood samples were taken at multiple time intervals for 48 hours post dosing. […] The pharmacokinctic parameters that were calculated from thiis study are sumarized in Table 2 below.
measured_attribute: clearance (mL/min/kg)
Write the answer as a number in mL/min/kg, unit excluded.

Bench note: what clearance did Cc1cc(CN2CCC(F)(C(=O)N3CCC(n4c(-c5ccccn5)nc5cccnc54)CC3)CC2)cc(N)n1 show?
1.7
